Test: PSAC antagonists in infected red cells, primary screen, cell-based, P. falciparum Indochina, OD700, 1 h (AID 1154)
Settings: P. falciparum Indochina infected RBC osmotic lysis, higher = more signal, called active from +8 up or from −8 down
measure: z-score

INSERT INTO results (compound, measured_result) VALUES
  ('COCCOC(=O)N1C(=O)[C@@]2(c3cc(C#Cc4ccc(OC)cc4)ccc31)[C@H](C(=O)N1CCCCCCC1)[C@H]1C(=O)O[C@H](c3ccccc3)[C@H](c3ccccc3)N1[C@@H]2c1ccc(O)cc1', 1.04),
  ('O=C(NC1CC1)[C@@H]1c2ccccc2C(=O)N(Cc2ccccc2)[C@H]1c1ccc(CO)cc1', 2.58),
  ('CCOC(=O)C[C@H]1[C@H](OC(=O)c2ccc(-c3ccccc3)cc2)[C@@H](NC(=O)C2CCCCC2)c2cc(OCCCO)ccc2N1C(=O)c1ccccc1', 0.479),
  ('COc1ccccc1CN1C(=O)c2ccccc2[C@](Cc2ccccc2I)(C(=O)NC(C)C)[C@@H]1c1ccc(CO)cc1', 4.1),
  ('COCCOC(=O)N1C(=O)[C@@]2(c3cc(C#CC4(O)CCCCCC4)ccc31)[C@H](C(N)=O)[C@H]1C(=O)O[C@H](c3ccccc3)[C@H](c3ccccc3)N1[C@@H]2c1ccccc1OCCO', 4.94),
  ('NC(=O)N1C(=O)C2C(C1=O)C1C=C(CCCO)C2C(c2cccs2)N1Cc1cc2c(cc1Br)OCO2 (stereo not drawn)', 17.7),
  ('COc1cc2c(cc1O)C(C)N(Cc1cc3c(cc1Br)OCO3)CC2 (stereo not drawn)', 2.87),
  ('CC(C)CN1C(=O)[C@@]2(Cc3ccccc31)c1ccccc1C(=O)N(Cc1ccccc1C(F)(F)F)[C@H]2c1ccc(CO)cc1', 0.21);
